Tested on: IGROV1 ovarian
experimental-protocol: NCI tumour cell line growth inhibition, 48 h
measured-property: GI50

compound	GI50
COc1ccc(NC(=O)COc2ccccc2)c(C(N)=O)c1	4710 nM
N=C(N)c1ccc(CS(=O)(=O)F)cc1	> 100000 nM
COc1ccc(C2CC(c3ccc4ccccc4c3)=NN2/C=C2\SC(=S)N(NC(=O)Cc3ccccc3Nc3c(Cl)cccc3Cl)C2=O)cc1 (centres undefined)	588 nM

# next compound below
The measured GI50 associated with O=C(/C=C/c1ccccc1)Nc1ncc(Cc2ccccc2)s1 reads 491 nM

###

Reported TGI values are given for each entry in this list.
Tested on: OVCAR-8 ovarian
experimental-protocol: NCI tumour cell line growth inhibition, 48 h

Solved entries (count: 2):
smiles-notation	readout-value
Cc1ccc(C(=O)Nc2ccc(CN3CCN(C)CC3)c(C(F)(F)F)c2)cc1C#Cc1cnc(N)c2ccc(C#N)cc12	> 11.7 µM
CCOC(=O)CC[C@H](NC(=O)c1ccc(CNc2nc3cc(C(F)(F)F)ccc3nc2C(=O)OCC)cc1)C(=O)OCC	> 100 µM

The measured TGI associated with Cc1ccc([N+]2=NC(c3ccc([N+](=O)[O-])cc3)=NN(c3ccccc3)C2)cc1 reads > 100 µM

###

Reported TGI values are given for each entry in this list.
Test system: U251 CNS
experimental-protocol: NCI tumour cell line growth inhibition, 48 h

Solved entries (count: 5):
compound	measured-property	readout-value
CCOC(=O)CCC(NC(=O)C(CCC(=O)OCC)NC(=O)C(Cc1ccc([N+](=O)[O-])cc1)NC(C)=O)C(=O)NNC(=O)OC(C)(C)C (centres undefined)	TGI	> 100 µM
COC1CC(=O)C2C(=O)N(c3ccccc3)C(=O)C23C(C(=O)c2ccccc2)=C(C)NC13O (centres undefined)	TGI	35.5 µM
COC1=CC(=O)c2c(O)c3c(c(O)c2C1=O)OC1(Oc2c(cc4cc(C)oc(=O)c4c2O)CC1O)C3O (centres undefined)	TGI	> 100 µM
CS(=O)(=O)c1nccc(-c2c(-c3cccc(OCc4ccccc4)c3)nc3sccn23)n1	TGI	> 100 µM
CCOC(=O)c1ccc(OCc2nc3cc(C(F)(F)F)ccc3nc2-c2ccccc2)cc1	TGI	> 100 µM

The measured TGI associated with C=C(c1ccc(OC)c(/C=C/C(=O)c2cc(OC)c(OC)c(OC)c2)c1)c1cc(OC)c(OC)c(OC)c1 reads 2.12 µM

The measured TGI associated with COCn1c(=O)n(C)c(=O)c2c1nc1c(c(=O)n(C)c(=O)n1COC)[n+]2[O-] reads 59.6 µM

###

System: NCI-H522 lung
experimental-protocol: NCI tumour cell line growth inhibition, 48 h; in the data active means GI50 below about 0.43 µM; inactive means the rest
Parameter call: string, one of active, inactive

See these solved cases before continuing.
smiles-notation	label-value
O=C1C2=C(C(=O)c3c(O)ccc(O)c31)N(c1cccnc1)Cc1ccccc1O2	active
C=C(c1ccc(OC)c(/C=C/C(=O)c2cc(OC)c(OC)c(OC)c2)c1)c1cc(OC)c(OC)c(OC)c1	inactive
O=C(NCCN1CCOCC1)Nc1nc2ccc(Sc3nnc4ccc(-c5ccc(F)cc5)nn34)cc2s1	inactive
N=C(N)c1ccc(CS(=O)(=O)F)cc1	inactive
C/C(=N\NC(=O)c1cccc(S(=O)(=O)N2CCN(C)CC2)c1)c1cc(Cl)ccc1O	inactive

Below: the item to evaluate.
Q: Kindly provide the recorded test outcome for the following compound: CCN(CC)c1ccc(CNc2cc(C)nc3ccc(OC)cc23)cc1
A: inactive

###

Test system: MCF7 breast
experimental-protocol: NCI tumour cell line growth inhibition, 48 h
Where a SMILES comes first, the peptide text is derived from it. [ ]: non-standard residue; d: D form. The star is where a group is joined. Bn2Val = CC(C)[C@@H](C(=O)*)N(Cc1ccccc1)Cc1ccccc1; NHPiperonyl = c1cc2c(cc1CN*)OCO2; NMeV = CN[C@H](C(=O)O)C(C)C; dNMeA = CN[C@H](C)C(=O)O
measured-property: TGI (µM)
Respond with the bare value in µM.

compound	output-unit	readout-value
CC(C)[C@H](NC(=O)[C@H](C(C)C)N(Cc1ccccc1)Cc1ccccc1)C(=O)N(C)[C@H](C(=O)N1CCC[C@H]1C(=O)N(C)[C@H](C)C(=O)NCc1ccc2c(c1)OCO2)C(C)C (Bn2Val-V[NMeV]P[dNMeA]-NHPiperonyl)	µM	7.55
C=C1CC(COc2ccc3c(C)c(Cl)c(=O)oc3c2)(c2ccccc2)OC1=O (stereo not given)	µM	5.14
C=CC1CC12C(=O)C1OC2(C)C2C(=O)c3c(O)cccc3C(=O)C12 (stereo not given)	µM	74.5
Cc1c2ccccc2c(CSC(=N)N)c2ccccc12	µM	0.518

The measured TGI associated with COc1ccc(Nc2[nH]n(C3=Nc4ccccc4Sc4ccccc43)c(=O)c2C#N)cc1 reads 11.7

The measured TGI associated with N=C(N)SC(c1ccccc1)c1ccccc1 reads 30

###

Test system: A498 renal
experimental-protocol: NCI tumour cell line growth inhibition, 48 h; in the data active means GI50 below about 0.43 µM; inactive means the rest
Parameter call: string, one of active, inactive

See these solved cases before continuing.
smiles-notation	label-value
COc1ccccc1CN=C1NC(=O)/C(=C/c2ccc3ncccc3c2)S1	inactive
OCCNC(=S)Nc1ccc(-c2nc(N3C[C@H]4CC[C@@H](C3)O4)c3cccn3n2)cc1	active
CCN(CC)c1ccc(CNc2cc(C)nc3ccc(OC)cc23)cc1	inactive

Below: the item to evaluate.
Q: Kindly provide the recorded test outcome for the following molecule: O=C(/C=C/c1ccccc1)Nc1ncc(Cc2ccccc2)s1
A: active

###

System: HOP-92 NSCLC
experimental-protocol: NCI tumour cell line growth inhibition, 48 h
Reported TGI values are given for each entry in this list.

Solved entries (count: 3):
compound	readout-value
O=[N+]([O-])c1ccc(CSc2c3ccccc3nc3ccccc23)cc1	> 37.3 µM
CC(=O)O[C@H]1CC[C@@]2(C)C(=CC[C@@H]3C2CC[C@]2(C)C(=O)NC(=O)CC32)C1 (stereo partly specified)	> 100 µM
COc1cccc(-c2cc(=O)c3cc(C)c(C)c(C(=O)O)c3o2)c1	> 100 µM

Noted TGI for N=C1/C(=C/c2ccco2)C(=O)N=C2SC=NN12 , tested on HOP-92 NSCLC: > 100 µM

Noted TGI for O=C(c1ccc(-c2ccccc2)cc1)N(Cc1cccnc1)C(=S)N(Cc1cccnc1)C(=O)c1ccc(-c2ccccc2)cc1 , tested on HOP-92 NSCLC: > 100 µM

Noted TGI for C=CC(C)CCC(C/C=C(\C)CCCC(C)C)C(=C)CCCC(C)C (stereo unspecified) , tested on HOP-92 NSCLC: > 100 µM

Noted TGI for OCC(O)C(O)C(O)c1nn[nH]n1 (stereo unspecified) , tested on HOP-92 NSCLC: > 100 µM

Noted TGI for O=C1CSC(c2c[nH]c3ccccc23)N1c1cccc([N+](=O)[O-])c1 (stereo unspecified) , tested on HOP-92 NSCLC: > 100 µM

Noted TGI for CCCCCCCCCCCCCCCCCCNc1ccn(C2OC(COP(=O)(O)OCC(COP(=O)(O)OCC3OC(n4cc(C)c(=O)[nH]c4=O)CC3N=[N+]=[N-])OCCCCCCCCCCCCCCCCCC)C(O)C2O)c(=O)n1 (stereo unspecified) , tested on HOP-92 NSCLC: > 100 µM

Noted TGI for O=C1OCCC12CN(Cc1ccccc1)N=N2 (stereo unspecified) , tested on HOP-92 NSCLC: > 100 µM

Noted TGI for COc1cc(/C=C2/CCCc3ccccc3C2=O)cc(OC)c1OC , tested on HOP-92 NSCLC: > 82.2 µM

###

Tested on: SNB-19 CNS
experimental-protocol: NCI tumour cell line growth inhibition, 48 h
measured-property: TGI

compound	target-under-test	TGI
O=C(Nc1ccc(-n2ccc3c(NC(=O)c4ccccc4)ncnc32)cc1)Nc1ccc(Cl)c(C(F)(F)F)c1	SNB-19 CNS	7.18 µM

Noted TGI for NS(=O)(=O)c1ccc(C(=O)O)cc1 , tested on SNB-19 CNS: > 100 µM

Noted TGI for N=C(N)c1ccc(CS(=O)(=O)F)cc1 , tested on SNB-19 CNS: > 100 µM

Noted TGI for O=S(Nc1ccccc1)c1ccccc1Oc1ccccc1 (stereo unspecified) , tested on SNB-19 CNS: > 100 µM

Noted TGI for O=c1oc2cc(O)ccc2c(O)c1C(c1ccc2ccccc2c1)c1c(O)c2ccc(O)cc2oc1=O , tested on SNB-19 CNS: 49.3 µM

###

Tested on: M14 melanoma
experimental-protocol: NCI tumour cell line growth inhibition, 48 h
measured-property: TGI

Solved entries (count: 5):
compound	TGI
O=S(=O)(Nc1nc2ccccc2nc1Nc1cccc2ccccc12)c1ccccc1	> 100 µM
Nc1nc2ccccc2c2[nH]c3ccccc3c12	2.95 µM
N#Cc1c(N)n(C2OC(CO)C(O)C2O)c2ncnc(N)c12 (configuration not stated)	0.265 µM
O=C1/C(=N/N=C(c2ccccc2)c2ccccc2)c2ccccc2-c2ccccc21	> 100 µM
COc1ccccc1CN=C1NC(=O)/C(=C/c2ccc3ncccc3c2)S1	> 25 µM

The measured TGI associated with CC(C)NC1CCCCC2c3cc(F)ccc3[C@]12O (some centres not stated) reads > 100 µM

The measured TGI associated with O=c1[nH]ccc2nc(N3CCC(O)CC3)nc(Nc3ccc(N4CCOCC4)cc3)c12 reads > 100 µM
